Tested on: PROVIDENCIA STUARTII CMX 640
measured-metric: MIC

INSERT INTO measurements (compound, experimental_system, measured_value) VALUES
  ('CC[C@H]1OC(=O)[C@H](C)C(=O)[C@H](C)[C@@H](O[C@@H]2O[C@H](C)C[C@H](N(C)C)[C@H]2O)[C@](C)(OC)C[C@@H](C)C2=N[C@@H]3CN(CCc4ccccc4)C[C@@H]3N3C(=O)O[C@@]1(C)[C@H]3[C@H]2C', 'PROVIDENCIA STUARTII CMX 640', '> 100 µg/mL'),
  ('CC[C@H]1OC(=O)[C@H](C)C(=O)[C@H](C)[C@@H](O[C@@H]2O[C@H](C)C[C@H](N(C)C)[C@H]2O)[C@](C)(OC)C[C@@H](C)C2=NC[C@H](COCc3cccc(F)c3)N3C(=O)O[C@@]1(C)[C@H]3[C@H]2C', 'PROVIDENCIA STUARTII CMX 640', '> 100 µg/mL'),
  ('CC[C@H]1OC(=O)[C@H](C)C(=O)[C@H](C)[C@@H](O[C@@H]2O[C@H](C)C[C@H](N(C)C)[C@H]2O)[C@](C)(OC)C[C@@H](C)C2=NC(COCc3ccc(Cl)cc3)C(COCc3ccc(Cl)cc3)N3C(=O)O[C@@]1(C)[C@H]3[C@H]2C (stereo partly shown)', 'PROVIDENCIA STUARTII CMX 640', '> 100 µg/mL'),
  ('CC[C@H]1OC(=O)[C@H](C)C(=O)[C@H](C)[C@@H](O[C@@H]2O[C@H](C)C[C@H](N(C)C)[C@H]2O)[C@](C)(OC)C[C@@H](C)C2=N[C@@H]3CN(Cc4ccncc4)C[C@@H]3N3C(=O)O[C@@]1(C)[C@H]3[C@H]2C', 'PROVIDENCIA STUARTII CMX 640', '> 100 µg/mL');

----------
Tested on: STAPHYLOCOCCUS AUREUS CMX 553
Test: In vitro antibacterial activity, MIC, BHI agar dilution
Assay type: cell-based
Settings: S. aureus CMX 553, unit assumed
measured-metric: MIC

INSERT INTO measurements (compound, measured_value) VALUES
  ('CCC1OC(=O)C(C)C(=O)C(C)C(OC2OC(C)CC(N(C)C)C2O)C(C)(OC)CC(C)C2=NC(CN)CN3C(=O)OC1(C)C3C2C (stereo not drawn)', '0.39 µg/mL'),
  ('CC[C@H]1OC(=O)[C@H](C)C(=O)[C@H](C)[C@@H](O[C@@H]2O[C@H](C)C[C@H](N(C)C)[C@H]2O)[C@](C)(OC)C[C@@H](C)C2=NCC(COC(=O)c3ccccc3)N3C(=O)O[C@@]1(C)[C@H]3[C@H]2C (stereo partly drawn)', '0.1 µg/mL'),
  ('CCC1OC(=O)C(C)C(=O)C(C)C(OC2OC(C)CC(N(C)C)C2O)C(C)(OC)CC(C)C2=NCC(C)(CN(C)Cc3ccccc3)N3C(=O)OC1(C)C3C2C (stereo not drawn)', '0.78 µg/mL');

----------
Test system: STAPHYLOCOCCUS AUREUS A5177
Assay: In vitro antibacterial activity, MIC, BHI agar dilution
Format: cell-based
Conditions: S. aureus A5177, unit assumed
Listing of recorded log10 MIC by entry.
measured-metric: log10 MIC (log10 of the value in µg/mL)

INSERT INTO measurements (molecule, measured_value) VALUES
  ('CC[C@H]1OC(=O)[C@H](C)C(=O)[C@H](C)[C@@H](O[C@@H]2O[C@H](C)C[C@H](N(C)C)[C@H]2O)[C@](C)(OC)C[C@@H](C)C2=NC[C@H](Cc3ccc(OCc4ccccc4)cc3)N3C(=O)O[C@@]1(C)[C@H]3[C@H]2C', -0.70),
  ('CC[C@H]1OC(=O)[C@H](C)C(=O)[C@H](C)[C@@H](O[C@@H]2O[C@H](C)C[C@H](N(C)C)[C@H]2O)[C@](C)(OC)C[C@@H](C)C2=NC[C@H](Cc3ccc(O)cc3)N3C(=O)O[C@@]1(C)[C@H]3[C@H]2C', -0.41),
  ('CC[C@H]1OC(=O)[C@H](C)C(=O)[C@H](C)[C@@H](O[C@@H]2O[C@H](C)C[C@H](N(C)C)[C@H]2O)[C@](C)(OC)C[C@@H](C)C2=NCC(COC(=O)c3ccc([N+](=O)[O-])cc3)N3C(=O)O[C@@]1(C)[C@H]3[C@H]2C (stereo partly shown)', -1.00),
  ('CC[C@H]1OC(=O)[C@H](C)C(=O)[C@H](C)[C@@H](O[C@@H]2O[C@H](C)C[C@H](N(C)C)[C@H]2O)[C@](C)(OC)C[C@@H](C)C2=NC3CN(S(=O)(=O)Cc4ccccc4[N+](=O)[O-])CC3N3C(=O)O[C@@]1(C)[C@H]3[C@H]2C (stereo partly shown)', 0.19),
  ('CCC1OC(=O)C(C)C(=O)C(C)C(OC2OC(C)CC(N(C)C)C2O)C(C)(OC)CC(C)C2=NCC(COCc3ccccc3F)N3C(=O)OC1(C)C3C2C (stereo not shown)', -1.00),
  ('CC[C@H]1OC(=O)[C@H](C)C(=O)[C@H](C)[C@@H](O[C@@H]2O[C@H](C)C[C@H](N(C)C)[C@H]2O)[C@](C)(OC)C[C@@H](C)C2=NC[C@H](Cc3cscn3)N3C(=O)O[C@@]1(C)[C@H]3[C@H]2C', -0.70),
  ('CC[C@H]1OC(=O)[C@H](C)C(=O)[C@H](C)[C@@H](O[C@@H]2O[C@H](C)C[C@H](N(C)C)[C@H]2O)[C@](C)(OC)C[C@@H](C)C2=NCC(CNCc3ccccc3)N3C(=O)O[C@@]1(C)[C@H]3[C@H]2C (stereo partly shown)', -0.41),
  ('CC[C@H]1OC(=O)[C@H](C)C(=O)[C@H](C)[C@@H](O[C@@H]2O[C@H](C)C[C@H](N(C)C)[C@H]2O)[C@](C)(OC)C[C@@H](C)C2=N[C@H](CN3CCOCC3)CN3C(=O)O[C@@]1(C)[C@H]3[C@H]2C', -0.41),
  ('CC[C@H]1OC(=O)[C@H](C)C(=O)[C@H](C)[C@@H](O[C@@H]2O[C@H](C)C[C@H](N(C)C)[C@H]2O)[C@](C)(OC)C[C@@H](C)C2=NC[C@H](COCc3ccccc3)N3C(=O)O[C@@]1(C)[C@H]3[C@H]2C', -1.30),
  ('CC[C@H]1OC(=O)[C@H](C)C(=O)[C@H](C)[C@@H](O[C@@H]2O[C@H](C)C[C@H](N(C)C)[C@H]2O)[C@](C)(OC)C[C@@H](C)C2=N[C@@H]3CN(CCc4ccccc4)C[C@@H]3N3C(=O)O[C@@]1(C)[C@H]3[C@H]2C', -0.70),
  ('CC[C@H]1OC(=O)[C@H](C)C(=O)[C@H](C)[C@@H](O[C@@H]2O[C@H](C)C[C@H](N(C)C)[C@H]2O)[C@](C)(OC)C[C@@H](C)C2=N[C@H](COCc3cc(C)c4ccccc4n3)CN3C(=O)O[C@@]1(C)[C@H]3[C@H]2C', -0.70),
  ('CC[C@H]1OC(=O)[C@H](C)C(=O)[C@H](C)[C@@H](O[C@@H]2O[C@H](C)C[C@H](N(C)C)[C@H]2O)[C@](C)(OC)C[C@@H](C)C2=N[C@H](Cc3ccccc3)CN3C(=O)O[C@@]1(C)[C@H]3[C@H]2C', -0.41),
  ('CC[C@H]1OC(=O)[C@H](C)C(=O)[C@H](C)[C@@H](O[C@@H]2O[C@H](C)C[C@H](N(C)C)[C@H]2O)[C@](C)(OC)C[C@@H](C)C2=NC3CN(C)CC3N3C(=O)O[C@@]1(C)[C@H]3[C@H]2C (stereo partly shown)', -0.11),
  ('CC[C@H]1OC(=O)[C@H](C)C(=O)[C@H](C)[C@@H](O[C@@H]2O[C@H](C)C[C@H](N(C)C)[C@H]2O)[C@](C)(OC)C[C@@H](C)C2=NC[C@H](CSCc3ccccc3)N3C(=O)O[C@@]1(C)[C@H]3[C@H]2C', -1.00),
  ('CC[C@H]1OC(=O)[C@H](C)C(=O)[C@H](C)[C@@H](O[C@@H]2O[C@H](C)C[C@H](N(C)C)[C@H]2O)[C@](C)(OC)C[C@@H](C)C2=NC[C@H](CO)N3C(=O)O[C@@]1(C)[C@H]3[C@H]2C', -0.11),
  ('CC[C@H]1OC(=O)[C@H](C)C(=O)[C@H](C)[C@@H](O[C@@H]2O[C@H](C)C[C@H](N(C)C)[C@H]2O)[C@](C)(OC)C[C@@H](C)C2=N[C@H](COCCN3CCOCC3)CN3C(=O)O[C@@]1(C)[C@H]3[C@H]2C', 0.19);
